# TGT: Integrin alpha-V/beta-1 (Homo sapiens) (UniProt P05556+P06756)
# EXPERIMENT DESCRIPTION: Inhibition of human […] alphaVbeta1 expressed in african green monkey Vero E6 cells assessed as inhibition of PHV-1 entry at 10 uM
# Format: cell-based
Active and inactive are the calls of the source. The rule behind the calls is not given here.
OBSERVATION TYPE: inhibition

O=C(NCc1ccc2c(c1)OCO2)C(Cc1ccccc1)NS(=O)(=O)c1cccc2cccnc12 (racemic)
Active
O=c1c(/C=N/Cc2ccco2)c(CSc2ccc(Cl)cc2)[nH]n1-c1nc2ccccc2s1
Active
CC(C)[C@@H]1NC(=O)[C@H](Cc2ccccc2)NC(=O)[C@H]2CCCN2C(=O)[C@@H](N)CSSC[C@@H](C(=O)O)NC1=O
Active
O=C(NCc1cccs1)C(Cc1ccccc1)NS(=O)(=O)c1ccc2nsnc2c1 (racemic)
Active

====

# TGT: Integrin alpha-V/beta-3 (Homo sapiens) (UniProt P05106+P06756)
# EXPERIMENT DESCRIPTION: Inhibition of human alphaVbeta3 receptor expressed in african green monkey Vero E6 cells assessed as inhibition of SNV infection in cells at 1 uM by immunofluorescent assay
# Format: cell-based
OBSERVATION TYPE: inhibition (%)
Write the value in % as a bare number.

Please review the following examples before continuing.
O=C(C(Cc1ccccc1)NS(=O)(=O)c1cccc2cccnc12)N1CCOCC1 (centres undefined)
4.5
CCc1ccccc1NC(=O)C(Cc1ccccc1)NS(=O)(=O)c1cccc2nsnc12 (centres undefined)
2
Cc1cc(NC(=O)C(Cc2ccccc2)NS(=O)(=O)c2cccc3cccnc23)no1 (centres undefined)
9.6
Cc1ccc(CNC(=O)C(Cc2ccccc2)NS(=O)(=O)c2cccc3cccnc23)cc1 (centres undefined)
0
CCC1CCCCN1CCNC(=O)C(Cc1ccccc1)NS(=O)(=O)c1ccc2nsnc2c1 (centres undefined)
0
N#Cc1ccccc1Cn1c(=O)n(CCC(=O)NCc2ccc3c(c2)OCO3)c(=O)c2ccccc21
1
O=C(NCc1ccc2c(c1)OCO2)C(Cc1ccccc1)NS(=O)(=O)c1cccc2nsnc12 (centres undefined)
0
Nc1c([S+]([O-])Cc2ccc(Cl)cc2)sc2nc(-c3cccs3)cc(-c3ccccc3)c12 (centres undefined)
1

Request: Consider the compound O=C1c2cccnc2C(=O)N1Cc1ccc(F)cc1S(=O)(=O)N1CCN(c2ccccc2F)CC1 . State its measured inhibition.
Result: 2.3

Request: Consider the compound O=C(C(Cc1ccccc1)NS(=O)(=O)c1cccc2cccnc12)N1CCC2(CC1)OCCO2 (centres undefined) . State its measured inhibition.
Result: 9

Request: Consider the compound Cc1ccc(Cl)cc1NC(=O)C(Cc1ccccc1)NS(=O)(=O)c1cccc2cccnc12 (centres undefined) . State its measured inhibition.
Result: 14

Request: Consider the compound CCOc1ccccc1CNC(=O)C1CCCN(c2ncnc3onc(-c4ccc(F)cc4)c23)C1 (centres undefined) . State its measured inhibition.
Result: 18

Request: Consider the compound O=C1c2cccnc2C(=O)N1Cc1ccc(F)cc1S(=O)(=O)N1CCC(Cc2ccccc2)CC1 . State its measured inhibition.
Result: 0

Request: Consider the compound O=C(CSc1nc2nccnc2c(=O)n1Cc1cccs1)NCCc1ccccc1 . State its measured inhibition.
Result: 6

Request: Consider the compound O=C(NCCc1ccccc1)C(Cc1ccccc1)NS(=O)(=O)c1cccc2nsnc12 (centres undefined) . State its measured inhibition.
Result: 0

Request: Consider the compound COc1ccccc1CNC(=O)C(Cc1ccccc1)NS(=O)(=O)c1cccc2cccnc12 (centres undefined) . State its measured inhibition.
Result: 9.6

Request: Consider the compound O=C(Nc1ccccc1)C(Cc1ccccc1)NS(=O)(=O)c1cccc2cccnc12 (centres undefined) . State its measured inhibition.
Result: 0

Request: Consider the compound COc1ccc(OC)c(NC(=O)C(Cc2ccccc2)NS(=O)(=O)c2cccc3nsnc23)c1 (centres undefined) . State its measured inhibition.
Result: 6.4

Request: Consider the compound O=C(c1ccco1)N1CCN(C(=O)C(Cc2ccccc2)NS(=O)(=O)c2ccc3nsnc3c2)CC1 (centres undefined) . State its measured inhibition.
Result: 22

====

Catalogue of inhibition values
# TGT: Integrin alpha-V/beta-3 (Homo sapiens) (UniProt P05106+P06756)
# EXPERIMENT DESCRIPTION: Inhibition of human alphaVbeta3 receptor expressed in african green monkey Vero E6 cells assessed as inhibition of SNV infection in cells at 1 uM by immunofluorescent assay
# Format: cell-based
Field note: include the unit after the figure.

Please review the following examples before continuing.
COc1ccc(CCNC(=O)C(Cc2ccccc2)NS(=O)(=O)c2ccc(Br)cc2)cc1OC (stereo not drawn)
14%
CCN(CCNC(=O)C(Cc1ccccc1)NS(=O)(=O)c1cccc2nsnc12)c1ccccc1 (stereo not drawn)
8%
CN1CCN(C(=O)C(Cc2ccccc2)NS(=O)(=O)c2cccc3cccnc23)CC1 (stereo not drawn)
0%
NS(=O)(=O)c1ccc(CCNC(=O)C(NS(=O)(=O)c2cccc3nsnc23)c2ccccc2)cc1 (stereo not drawn)
6%
O=C(NC1CCCCCC1)C(Cc1ccccc1)NS(=O)(=O)c1cccc2nsnc12 (stereo not drawn)
0%

Request: For Integrin alpha-V/beta-3 (Homo sapiens) (UniProt P05106+P06756), give the measured inhibition of the entry O=C(NCc1ccc(Cl)cc1)C1CCCN(c2ncnc3onc(-c4ccc(F)cc4)c23)C1 (stereo not drawn)
Result: 23.6%

====

# TGT: Integrin alpha-V/beta-3 (Homo sapiens) (UniProt P05106+P06756)
# EXPERIMENT DESCRIPTION: Inhibition of human alphaVbeta3 receptor expressed in african green monkey Vero E6 cells assessed as inhibition of SNV infection in cells at 1 uM by immunofluorescent assay
# Format: cell-based
Where a SMILES comes first, the peptide text is derived from it. [ ]: non-standard residue; d: D form. The star is where a group is joined. Phe(4-F) = N[CH](Cc1ccc(F)cc1)C(=O)O; Tos = Cc1ccc(S(=O)(=O)*)cc1
Catalogue of inhibition values
Field note: include the unit after the figure.

Please review the following examples before continuing.
Cc1ccc(S(=O)(=O)NC(Cc2ccc(F)cc2)C(=O)NC(CCCNC(=N)N)C(=O)O)cc1 (centres undefined) (Tos-[Phe(4-F)]-Arg-OH; configuration not given here)
0%
COc1ccc(CNC(=O)C2CCCN(c3ncnc4onc(C)c34)C2)cc1 (centres undefined)
4.6%
O=C(NCc1ccccc1Cl)C(Cc1ccccc1)NS(=O)(=O)c1cccc2cccnc12 (centres undefined)
21.4%

Next up:
Request: Consider the compound O=C(NC(Cc1c[nH]c2ccccc12)C(=O)OCC(=O)c1ccc(Cl)cc1)Oc1ccccc1 (centres undefined) . State its measured inhibition.
Result: 29%

====

# TGT: Integrin alpha-V/beta-3 (Homo sapiens) (UniProt P05106+P06756)
# EXPERIMENT DESCRIPTION: Inhibition of human alphaVbeta3 receptor expressed in african green monkey Vero E6 cells assessed as inhibition of SNV infection in cells at 1 uM by immunofluorescent assay
# Type: cell-based
OBSERVATION TYPE: inhibition (%)
Write the value in % as a bare number.

COc1ccccc1CNC(=O)C(Cc1ccccc1)NS(=O)(=O)c1cccc2nsnc12 (stereo not given)
4.8
O=C(N/N=C/c1ccc(Br)s1)c1cc(-c2ccccc2)nc2ccccc12
5
Cc1ccc(S(=O)(=O)N2CCN(C(=O)CSc3nnc(C)c(=O)[nH]3)C2c2ccccc2)cc1 (stereo not given)
4

Request: Consider the compound O=C(NC(C(=O)N/N=C/c1ccco1)c1nnc(O)c2ccccc12)c1ccccc1 (stereo not given) . State its measured inhibition.
Result: 33

Request: Consider the compound O=C(CCNS(=O)(=O)c1cccc2nsnc12)N(CCc1ccccc1)Cc1ccccc1 . State its measured inhibition.
Result: 0

====

# TGT: Integrin alpha-V/beta-3 (Homo sapiens) (UniProt P05106+P06756)
# EXPERIMENT DESCRIPTION: Inhibition of human alphaVbeta3 receptor expressed in african green monkey Vero E6 cells assessed as inhibition of SNV infection in cells at 1 uM by immunofluorescent assay
# Format: cell-based
OBSERVATION TYPE: inhibition (%)
Write the value in % as a bare number.

Please review the following examples before continuing.
COc1ccc(/C=C(\NC(=O)c2ccccc2)C(=O)NCCCCCC(=O)O)cc1
8
O=C(Cn1c(=O)n(Cc2ccco2)c(=O)c2sc3ccccc3c21)NCc1ccc(Cl)cc1
0
O=C(C(Cc1ccccc1)NS(=O)(=O)c1ccc2nsnc2c1)N1CCn2c1nc1ccccc12 (stereo not given)
0

Request: Consider the molecule O=C(NCc1ccc(Cl)cc1)C(Cc1ccccc1)NS(=O)(=O)c1cccc2cccnc12 (stereo not given) . State its measured inhibition.
Result: 9.1

Request: Consider the molecule NS(=O)(=O)c1ccc(CCNC(=O)C(Cc2ccccc2)NS(=O)(=O)c2cccc3nsnc23)cc1 (stereo not given) . State its measured inhibition.
Result: 9.6

====

# TGT: Integrin alpha-V/beta-3 (Homo sapiens) (UniProt P05106+P06756)
# EXPERIMENT DESCRIPTION: Inhibition of human […] alphaVbeta3 expressed in african green monkey Vero E6 cells assessed as inhibition of Andes CHI-7913 viral entry at 10 uM
# Format: cell-based
Activity calls are given as the source filed them. No cut-off for these calls is given here.
OBSERVATION TYPE: inhibition

O=C(NCc1ccc2c(c1)OCO2)C(Cc1ccccc1)NS(=O)(=O)c1cccc2cccnc12 (racemic)
Active
O=C(NCc1cccs1)C(Cc1ccccc1)NS(=O)(=O)c1ccc2nsnc2c1 (racemic)
Active
CC(C)[C@@H]1NC(=O)[C@H](Cc2ccccc2)NC(=O)[C@H]2CCCN2C(=O)[C@@H](N)CSSC[C@@H](C(=O)O)NC1=O
Active
O=c1c(/C=N/Cc2ccco2)c(CSc2ccc(Cl)cc2)[nH]n1-c1nc2ccccc2s1
Active
